Experiment: Study MPKF: plasma pharmacokinetics of MDMA and MDA, single 120 mg MDMA·HCl, fasted/fed
Format: in vivo, human
Conditions: human, plasma, po, 120 mg, Fasted N = 15; 120 mg MDMA·HCl; preliminary; arithmetic mean; read-out: AUC0-inf
measurementType: AUC(0-inf) (ng·h/mL)
The reply should contain only the number, in ng·h/mL.

Please give measured AUC(0-inf) of the following entry: CNC(C)Cc1ccc2c(c1)OCO2 (stereo not shown) [MDMA, 3,4-methylenedioxymethamphetamine] 3390

====

Test: Study MPKF: plasma pharmacokinetics of MDMA and MDA, single 120 mg MDMA·HCl, fasted/fed
Type: in vivo, human
Conditions: human, plasma, oral, 120 mg, fed treatment group; 6 h; read-out: PK plasma concentration, Geom. Mean
measurementType: concentration at 6 h (ng/mL)
Give your result in ng/mL as a bare value.

# return recorded concentration at 6 h for entry CNC(C)Cc1ccc2c(c1)OCO2 (stereo not shown) 208

====

Test: Study MPKF: plasma pharmacokinetics of MDMA and MDA, single 120 mg MDMA·HCl, fasted/fed
Type: in vivo, human
Conditions: human, plasma, oral, 120 mg, fasted treatment group; 4 h; read-out: PK plasma concentration, Geom. Mean
measurementType: concentration at 4 h (ng/mL)
Provide only the numeric value, understood in ng/mL.

In one line, give reported concentration at 4 h of the entry CNC(C)Cc1ccc2c(c1)OCO2 (stereo not shown) . 219

====

Test: Study MPKF: plasma pharmacokinetics of MDMA and MDA, single 120 mg MDMA·HCl, fasted/fed
Type: in vivo, human
Settings: human, plasma, oral, 120 mg, fed treatment group; 2 h; read-out: PK plasma concentration, Geom. Mean
measurementType: concentration at 2 h (ng/mL)
Just the number in ng/mL, nothing appended.

Let me know recorded concentration at 2 h for CNC(C)Cc1ccc2c(c1)OCO2 (stereo not shown) , thanks. 118

====

Experiment: Study MPKF: plasma pharmacokinetics of MDMA and MDA, single 120 mg MDMA·HCl, fasted/fed
Assay type: in vivo, human
Settings: human, plasma, oral, 120 mg, fed treatment group; 72 h; read-out: PK plasma concentration, Mean
measurementType: concentration at 72 h (ng/mL)
The response must be a number in ng/mL with no trailing unit.

Name the recorded concentration at 72 h of the compound listed here: CNC(C)Cc1ccc2c(c1)OCO2 (stereo not shown) 0.81

====

Assay: Study MPKF: plasma pharmacokinetics of MDMA and MDA, single 120 mg MDMA·HCl, fasted/fed
Type: in vivo, human
Conditions: human, plasma, oral, 120 mg, fed treatment group; 4 h; read-out: PK plasma concentration, Mean
measurementType: concentration at 4 h (ng/mL)
Write the answer as a number in ng/mL, unit excluded.

Identify measured concentration at 4 h associated with CNC(C)Cc1ccc2c(c1)OCO2 (stereo not shown) 228

====

Assay: Study MPKF: plasma pharmacokinetics of MDMA and MDA, single 120 mg MDMA·HCl, fasted/fed
Assay type: in vivo, human
Conditions: human, plasma, oral, 120 mg, fasted treatment group; 1 h; read-out: PK plasma concentration, Geom. Mean
measurementType: concentration at 1 h (ng/mL)
Your answer should be a plain number; it is taken to be in ng/mL.

Please give the documented concentration at 1 h of CNC(C)Cc1ccc2c(c1)OCO2 (stereo not shown) 111
